Values were extracted from PubChem BioAssay (NCI).

Measured TGI accompanies every entry in the list below.
- Tested on: 786-0 renal
- Assay Procedure: NCI tumour cell line growth inhibition, 48 h
Readout Name: TGI

                                    molecule  target_entity     result
 0  C[C@H](Nc1cc(Cl)nc2c1cnn2[C@@H]1O[C@H](COP(=O)(O)CP(=O)(O)O)[C@@H](O)[C@H]1O)c1ccccc1F    786-0 renal   > 100 µM
 1            [N-]=[N+]=CC(=O)OC1Cc2ccccc2C1    786-0 renal   > 100 µM
 2  COC1CCCCN1C(=O)c1ccccc1 (stereo unspecified)    786-0 renal  > 25.3 µM
 3      CCOC(=O)NNC(=O)NCCCCNC(=O)NNC(=O)OCC    786-0 renal   > 100 µM
 4  COC(=O)C(C(=O)Cc1ccccc1[N+](=O)[O-])C(=O)OC    786-0 renal   > 100 µM
 5  O=S(=O)(Nc1ccc(Cl)cc1Cl)c1ccc(-c2cnc(C3CC3)o2)cc1    786-0 renal  > 86.5 µM
 6         C#Cc1nc(Nc2cc(C)[nH]n2)c2ccccc2n1    786-0 renal    1.13 µM
 7  O=S(=O)(c1ccccc1)N1N=C2c3ccccc3CCC[C@H]2C1c1ccccc1 (stereo partly specified)    786-0 renal   > 100 µM
 8  COc1cccc(C2c3cc4c(cc3OC(C)(N3CCCC3)C2C)OCO4)c1 (stereo unspecified)    786-0 renal   > 100 µM
 9  CCc1ccc(/C=C/c2ccc(O)c3ncccc23)[n+](C)c1    786-0 renal   > 100 µM
10        Cn1c2ccccc2c2ncc3[nH]c4ccccc4c3c21    786-0 renal   > 100 µM

---

- Tested on: RXF 393 renal
- Assay Procedure: NCI tumour cell line growth inhibition, 48 h
Where a SMILES comes first, the peptide text is derived from it. The star is where a group is joined. Cbz = O=C(OCc1ccccc1)*
Readout Name: TGI

                                   compound  target_entity  readout_name    result
0  CC(NC(=O)C(NC(=O)OCc1ccccc1)C(C)C)C(=O)NCC(=O)O (stereo not drawn) (Cbz-Val-Ala-Gly-OH; configuration not given here)  RXF 393 renal           TGI  > 100 µM
1   Nc1ccccc1N=Cc1cc2cc([N+](=O)[O-])ccc2s1  RXF 393 renal           TGI   28.7 µM
2  CCC(=O)O[C@H]1CC[C@H]2[C@@H]3CCC4=C/C(=N/OC(=O)c5cccc6cc7ccccc7nc56)CC[C@]4(C)[C@H]3CC[C@]12C  RXF 393 renal           TGI  > 100 µM
3  CSc1ccsc1-c1sc(-c2cc(SC)c(-c3sc(-c4cc(SC)c(-c5sccc5SC)s4)cc3SC)s2)cc1SC  RXF 393 renal           TGI  > 100 µM
4  Nc1n[nH]c(=O)c2c1c(I)cn2C1OC(CO)C(O)C1O (centres undefined)  RXF 393 renal           TGI   3.22 µM
5     CCSC1=N/C(=C\c2ccc(N(C)C)cc2)C(Cl)=N1  RXF 393 renal           TGI  > 100 µM
6  COc1cccc(C2c3cc4c(cc3OC(C)(N3CCCC3)C2C)OCO4)c1 (centres undefined)  RXF 393 renal           TGI   51.9 µM
7  O=S(=O)(c1ccccc1)N1N=C2c3ccccc3CCC[C@H]2C1c1ccccc1 (some centres undefined)  RXF 393 renal           TGI  > 100 µM
8  CC(Oc1ccc(OCC2CCCCC2)cc1)C(=O)OCC(=O)c1ccc(-c2ccccc2)cc1 (centres undefined)  RXF 393 renal           TGI  > 100 µM
